Data origin: paper PMC6556873

measured_target: BSA (Bos taurus, UniProt P02769)
Construct: gene ALB
Sequence (P02769 whole entry): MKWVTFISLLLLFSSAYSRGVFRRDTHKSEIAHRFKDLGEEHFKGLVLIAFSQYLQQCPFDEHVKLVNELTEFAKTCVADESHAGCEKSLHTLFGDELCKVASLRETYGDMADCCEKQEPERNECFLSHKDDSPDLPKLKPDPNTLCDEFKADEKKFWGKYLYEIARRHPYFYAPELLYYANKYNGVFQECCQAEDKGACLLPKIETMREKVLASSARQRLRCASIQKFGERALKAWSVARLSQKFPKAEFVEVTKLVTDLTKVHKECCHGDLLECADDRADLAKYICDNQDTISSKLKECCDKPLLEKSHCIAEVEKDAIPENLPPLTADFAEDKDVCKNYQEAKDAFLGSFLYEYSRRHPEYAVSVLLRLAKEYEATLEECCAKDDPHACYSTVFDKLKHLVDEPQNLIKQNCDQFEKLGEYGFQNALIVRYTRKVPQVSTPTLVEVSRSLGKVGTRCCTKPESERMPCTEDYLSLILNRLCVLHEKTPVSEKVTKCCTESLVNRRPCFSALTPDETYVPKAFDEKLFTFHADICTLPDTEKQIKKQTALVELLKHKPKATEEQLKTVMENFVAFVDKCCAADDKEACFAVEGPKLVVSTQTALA
Design: Intact protein LC/MS covalent labelling, fragments in pools of five, 200 uM each, 4 °C
experimental_parameters: 24 h, 4 °C, pool of five; 200 µM; covalent
endpoint: BSA
Answers are plain numbers.

O=C(CCl)N1CCN(c2ccc(Cl)cc2[N+](=O)[O-])CC1 | 0
COC(=O)c1cc(NC(=O)CCl)cn1C | 0
Cc1ccc(S(N)(=O)=O)cc1NC(=O)CCl | 0
C=CC(=O)Nc1ccc(F)cc1 | 0.2

Dear colleague, could you send me BSA for each of the items below? Thanks.
1. O=C(CCl)Nc1ccccc1F
2. Cc1cc(NC(=O)CCl)n(C)n1
3. CC1CN(C(=O)CCl)CCO1 (centres unmarked)
4. Cc1cc(NC(=O)CCl)n(-c2ccccc2F)n1

1. 0
2. 0
3. 0
4. 0

----------
measurement_description: in vitro
Design: species or system HB2, CCD841
experimental_parameters: human, hek293 cells
Please provide measured viability at 48 h, 10 µM for the entries that follow.
One number for each entry, in %.

Dear colleague, could you send me viability at 48 h, 10 µM for each of the items below? Thanks.
1. Cc1ccc(S(=O)(=O)N2CCN(C(=O)CCl)CC2)c(C)c1
2. CC1CCCC(C)N1C(=O)CCl (stereo not drawn)
3. O=C(CCl)Nc1ccc(Cl)cc1

1: 82.4; 2: 57.9; 3: 2.7

Dear colleague, could you send me viability at 48 h, 10 µM for each of the items below? Thanks.
1. O=C(CCl)N1CCN(S(=O)(=O)c2ccc(Cl)s2)CC1
2. C=CC(=O)N1CCC(C(=O)c2ccc3c(c2)NC(=O)C(C)O3)CC1 (stereo not drawn)
3. CC1CCc2ccccc2N1C(=O)CCl (stereo not drawn)
4. O=C(CCl)N(C1CCCC1)C1CC1
5. O=C(CCl)Nc1ccc(C(F)(F)F)cc1
6. C=CC(=O)N1CCCC1c1cccc2c1OCCO2 (stereo not drawn)
7. CN(C)C(=O)CN1CCN(C(=O)CCl)CC1.Cl
8. Cc1cc(CNC(=O)CCl)ccc1F

[2, 80.6, 54.7, 74, 5.5, 89.9, 128, 57.8]

Dear colleague, could you send me viability at 48 h, 10 µM for each of the items below? Thanks.
1. CC1(C)C2CCC1(C)C(NC(=O)CCl)C2 (stereo not drawn)
2. O=C(CCl)N1CCCCCCC1
3. C=CC(=O)Nc1nc(C)cc(C)n1
4. O=C(CCl)Nc1ccc(I)cc1
5. Cc1cc(N2CCCC2)ccc1NC(=O)CCl
6. CC(=O)Nc1ccc(NC(=O)CCl)cc1
7. C=CC(=O)Nc1nc(-c2ccccc2C)cs1
8. CC(NC(=O)CCl)C12CC3CC(CC(C3)C1)C2 (stereo not drawn)

75.9
43.5
133
4.9
40.7
56
93.4
55.2

Dear colleague, could you send me viability at 48 h, 10 µM for each of the items below? Thanks.
1. CNC(=O)C1CN(C(=O)CCl)c2ccccc2O1 (stereo not drawn)
2. C=CC(=O)Nc1nc(-c2ccc(O)cc2)cs1
3. O=C(CCl)NC1CCCCCCC1
4. O=C(CCl)N1CCN(C(=O)c2ccco2)CC1

1. 53
2. 65.4
3. 66.1
4. 35.6

----------
Please provide measured viability at 48 h, 10 µM for the entries that follow.
measurement_description: in vitro
Parameters: species or system HB2, CCD841
experimental_parameters: human, hek293 cells
Numbers only, in %.

// below: answered compounds
Cc1cc(NC(=O)CCl)on1 | 68.5
CC(C)NC(=O)NC(=O)CCl | 66.9
C=CC(=O)Nc1cc(-c2ccnn2C)ccc1C | 93.5

Dear colleague, could you send me viability at 48 h, 10 µM for each of the items below? Thanks.
1. C=CC(=O)NC1CCc2nc(-c3cc(F)ccc3F)cn2C1 (centres unmarked)
2. C=CC(=O)NCC1CCCc2sc(C)nc21 (centres unmarked)
3. O=C(CCl)N1CCC(c2nc3ccccc3o2)CC1
4. O=C(CCl)NC(=O)NCc1ccco1
5. O=C(CCl)NCc1ccc2c(c1)OCO2
6. CC(c1ccc(Cl)cc1)N(C)C(=O)CCl (centres unmarked)
7. C=CC(=O)N1CCCC1C1COCCC1(C)O (centres unmarked)
8. O=C1CN(C(=O)CCl)C2(CCCCC2)C(=O)N1

[78, 95.2, 21.4, 86.6, 85.6, 3.1, 104, 96.3]

----------
Please provide measured NUDT7 for the entries that follow.
measured_target: NUDT7 (Homo sapiens)
Construct: residues 14-235, E. coli, pNIC28-Bsa4, N-terminal His6 tag removed by TEV, construct 26672 Da
Sequence (P0C024 14-235): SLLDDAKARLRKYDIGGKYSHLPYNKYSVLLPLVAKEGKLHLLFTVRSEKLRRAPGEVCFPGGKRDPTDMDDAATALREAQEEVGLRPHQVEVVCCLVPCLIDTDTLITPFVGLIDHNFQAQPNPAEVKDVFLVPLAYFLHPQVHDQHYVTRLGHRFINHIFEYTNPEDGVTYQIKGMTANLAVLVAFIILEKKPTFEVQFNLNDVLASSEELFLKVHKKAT
Set-up: Intact protein LC/MS covalent labelling, fragments in pools of five, 200 uM each, 4 °C
experimental_parameters: 24 h, 4 °C, pool of five; 200 µM; covalent
Numbers only.

Cc1csc(CC(=O)NNC(=O)CCl)n1.Cl [PCM-0102095] | 0

Dear colleague, could you send me NUDT7 for each of the items below? Thanks.
1. CNC(=O)c1cccc(NC(=O)CCl)c1 [PCM-0102113]
2. Cl.O=C(CCl)N1CCN(c2ccc(F)cc2)CC1 [PCM-0102905]
3. CC(C)c1cc(NC(=O)CCl)on1 [PCM-0102132]
4. Cc1noc(C)c1CNC(=O)CCl [PCM-0102780]
5. N#Cc1ccc(Cl)cc1NC(=O)CCl [PCM-0102700]
6. O=C(CCl)N1Cc2ccccc2C(c2ccccc2)C1 (centres unmarked) [PCM-0102432]
7. CN(CC(=O)NC(C)(C)C)C(=O)CCl [PCM-0102259]
8. CC(NC(=O)CCl)c1ccc2c(c1)OCO2 (centres unmarked) [PCM-0103030]

0
0.1
0
0.11
0.4
0.33
0
0.12

Dear colleague, could you send me NUDT7 for each of the items below? Thanks.
1. Cc1nnc(NC(=O)CCl)o1 [PCM-0102147]
2. CC(C)(C)c1cc(NC(=O)CCl)n(-c2ccccc2)n1 [PCM-0102536]

[0, 0]

----------
Please provide measured OTUB2 for the entries that follow.
measured_target: OTUB2 (OTUB2A) (Homo sapiens)
Construct: full length residues 1-234, E. coli BL21(DE3)-R3, His tag removed by TEV, construct 27312 Da
Sequence (Q96DC9 whole entry, the tested form may be a part): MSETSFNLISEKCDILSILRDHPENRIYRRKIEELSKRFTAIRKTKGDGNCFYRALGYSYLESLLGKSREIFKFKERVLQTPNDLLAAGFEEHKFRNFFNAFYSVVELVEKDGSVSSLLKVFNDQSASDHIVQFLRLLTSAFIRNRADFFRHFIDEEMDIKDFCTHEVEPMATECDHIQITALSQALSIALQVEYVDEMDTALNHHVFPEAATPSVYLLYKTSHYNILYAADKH
Parameters: Intact protein LC/MS covalent labelling, fragments in pools of five, 200 uM each, 4 °C
experimental_parameters: 24 h, 4 °C, pool of five; 200 µM; covalent
Give bare numbers.

C=CC(=O)N1CCC(c2nccn2C)C1 (stereo not drawn) [PCM-0102553] | 0
O=C(CCl)NNC(=O)c1cccc(Cl)c1 [PCM-0102470] | 0.38
O=C(CCl)N1CCCC1c1ccc2c(c1)OCCO2 (stereo not drawn) [PCM-0102298] | 0
C=CC(=O)NC1CCC2(CC1)OCCO2 [PCM-0102564] | 0
C=CC(=O)NC(C)(C)c1cc(C(F)(F)F)on1 [PCM-0102528] | 0

Dear colleague, could you send me OTUB2 for each of the items below? Thanks.
1. CCC1CCCCN1C(=O)CCl (stereo not drawn) [PCM-0102828]
2. C=CC(=O)N1CC(OC(=O)NC(C)C)C1 [PCM-0102728]
3. O=C(CCl)NC(=O)NC12CC3CC(CC(C3)C1)C2 [PCM-0102360]
4. CN(C)C(=O)CN(C)C(=O)CCl [PCM-0102632]
5. O=C(CCl)Nc1nc(-c2cc(F)ccc2F)cs1 [PCM-0102496]
6. O=C(CCl)NC(=O)NC1CCCCC1 [PCM-0102692]

0
0.18
0.12
0.14
0
0

Dear colleague, could you send me OTUB2 for each of the items below? Thanks.
1. CC(NC(=O)CCl)c1ccccc1Cl (stereo not drawn) [PCM-0102110]
2. CC(c1ccc(Cl)cc1)N(C)C(=O)CCl (stereo not drawn) [PCM-0102556]
3. CC(C)(C)C(=O)NC(=O)CCl [PCM-0103021]
4. Cc1ccc(Cn2ccsc2=NC(=O)CCl)cc1 [PCM-0102708]
5. C=CC(=O)N1CC(C(=O)NC)C1 [PCM-0102843]
6. C=CC(=O)N(C)CC(=O)N1c2ccccc2NC(=O)CC1C (stereo not drawn) [PCM-0102729]

1: 0.25; 2: 0; 3: 0; 4: 0; 5: 0.1; 6: 0

----------
measurement_description: in vitro
Parameters: species or system HB2, HEK293
experimental_parameters: human, ccd841 cells
endpoint: viability at 48 h, 10 µM
Note: state the figure and append the unit.

Dear colleague, could you send me viability at 48 h, 10 µM for each of the items below? Thanks.
1. Cc1cc(S(N)(=O)=O)cc(NC(=O)CCl)c1C
2. O=C(CCl)N1c2ccccc2OCC1c1ccccc1 (stereo not drawn)
3. CS(C)(=O)=NC(=O)CCl

1: 61.3%; 2: 57.5%; 3: 97.5%
